ASSAY_SYSTEM: Macrophage metalloelastase (Homo sapiens)
Sequence (P39900 whole entry): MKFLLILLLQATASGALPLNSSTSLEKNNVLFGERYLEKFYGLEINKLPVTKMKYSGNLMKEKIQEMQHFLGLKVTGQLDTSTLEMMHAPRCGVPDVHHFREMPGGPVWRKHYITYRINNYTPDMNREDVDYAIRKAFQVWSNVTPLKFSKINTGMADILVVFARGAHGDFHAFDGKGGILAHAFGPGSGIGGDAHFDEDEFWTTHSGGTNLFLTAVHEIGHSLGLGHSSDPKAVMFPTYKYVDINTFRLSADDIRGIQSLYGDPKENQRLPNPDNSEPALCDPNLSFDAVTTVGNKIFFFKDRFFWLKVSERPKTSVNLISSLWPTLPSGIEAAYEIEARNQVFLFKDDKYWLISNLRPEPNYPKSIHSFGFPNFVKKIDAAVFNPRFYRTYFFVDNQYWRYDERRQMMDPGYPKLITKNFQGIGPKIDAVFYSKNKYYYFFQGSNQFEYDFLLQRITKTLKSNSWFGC
EXPERIMENT_DESCRIPTION: Inhibition of recombinant human MMP-12 by ELISA
ENDPOINT: IC50 (nM)
Express the result in nM but write the number alone.

Task: Look up IC50 with Macrophage metalloelastase (Homo sapiens) for this compound: CC(C)CC(C(=O)NC(c1noc(Sc2ccccc2)n1)C(C)(C)C)C(O)C(=O)NO (stereo unspecified)
Result: 20

====

EXPERIMENT_DESCRIPTION: Half life in Sprague-Dawley rats at 50 mg/kg, iv
Type: ADME, organism-based
CONDITION_NOTES: rat, in vivo
ENDPOINT: half-life (min)
Express the result in min but write the number alone.

Task: Query: half-life; subject: NC1CCCCC1NC(=O)P(=O)(O)O (stereo unspecified)
Result: 18.8
